Measured relative binding ratio, listed per entry.
TARGET: T1, Soluble CDCP1 extracellular domain (CDCP1-ECD) (SEQ ID NO:30) fused to Streptavidin Binding Protein (SBP) (human, UniProt Q9H5V8 30-663)
T1 construct: also called SBP-CDCP1-ECD
T1 sequence: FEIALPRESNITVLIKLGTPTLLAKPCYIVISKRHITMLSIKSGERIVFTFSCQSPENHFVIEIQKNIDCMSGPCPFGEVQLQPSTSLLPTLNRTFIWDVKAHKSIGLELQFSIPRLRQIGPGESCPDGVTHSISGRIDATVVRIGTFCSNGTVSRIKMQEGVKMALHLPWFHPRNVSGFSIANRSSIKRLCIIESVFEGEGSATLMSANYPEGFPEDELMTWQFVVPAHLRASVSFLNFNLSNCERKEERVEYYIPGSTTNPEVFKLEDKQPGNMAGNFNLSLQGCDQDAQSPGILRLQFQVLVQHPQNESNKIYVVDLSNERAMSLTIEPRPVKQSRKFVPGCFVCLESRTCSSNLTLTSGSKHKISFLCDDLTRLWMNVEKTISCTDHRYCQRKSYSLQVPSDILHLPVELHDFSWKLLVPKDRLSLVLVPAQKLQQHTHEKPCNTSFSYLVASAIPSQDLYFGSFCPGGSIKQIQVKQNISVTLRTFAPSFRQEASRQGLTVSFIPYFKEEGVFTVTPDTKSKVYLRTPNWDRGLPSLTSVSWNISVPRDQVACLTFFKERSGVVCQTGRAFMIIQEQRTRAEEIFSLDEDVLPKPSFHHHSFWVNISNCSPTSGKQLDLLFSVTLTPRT
ASSAY_NAME: ELISA on captured SBP-CDCP1-ECD, ratio relative to chimeric CUB4 (chHC4)
Give only the figure.

BINDER: hHC4-I / hLC4-L2 (antibody, V domains shown) VH: EVQLLESGGGLVQPGGSLRLSCAASGFTFNSYAMSWVRQAPGKGLEWVSAISSGGSYTYYADSVKGRFTISRDNSKNTLYLQMNSLRAEDTAVYYCAKHPDYDGVWFAYWGQGTLVTVSS VL: EIVLTQSPATLSLSPGERATMSCSVSSSVFYLHWYQQKPGQAPRLWIYDTSKLASGIPARFSGSGSGTDFTLTISSLEPEDFAVYYCQQWNSNPPTFGGGTKVEIK
relative binding ratio: 0.21
--
BINDER: hHC4-d / hLC4-f (antibody, V domains shown) VH: EVQLLESGGGLVQPGGSLRLSCAASGFTFNSYGMSWVRQAPGKGLEWVSTISSGGSYTYYPDSVKGRFTISRDNSKNTLYLQMNSLRAEDTAVYYCAKHPDYDGVWFAYWGQGTLVTVSS VL: DIQMTQSPSSLSASVGDRVTITCSVSSSVFYVHWYQQKPGKAPKLLIYDTSKLASGVPSRFSGSGSGTDYTFTISSLQPEDIATYYCQQWNSNPPTFGGGTKVEIK
relative binding ratio: 0.4
--
BINDER: hHC4-H / chLC4 (antibody, V domains shown) VH: EVQLVESGGGLVQPGGSLRLSCAASGFTFNSYGMSWVRQAPGKGLEWVATISSGGSYKYYVDSVKGRFTISRDNAKNSLYLQMNSLRAEDTAVYYCARHPDYDGVWFAYWGQGTLVTVSS VL: QIVLTQSPAIMSASPGEKVTMTCSVSSSVFYVHWYQQKSGTSPKRWIYDTSKLASGVPARFSGSGSGTSYSLTISSMEAEDAATYYCQQWNSNPPTFGGGTKLEIK
relative binding ratio: 1.12
--
BINDER: hHC4-K2 / hLC4-L (antibody, V domains shown) VH: EVQLVESGGGLVKPGGSLRLSCAASGFTFNSYGMSWVRQAPGKGLEWVSSISSGGSYTYYADSVKGRFTISRDNAKNSLYLQMNSLRAEDTAVYYCARHPDYDGVWFAYWGQGTLVTVSS VL: EIVLTQSPATLSLSPGERATMSCRASSSVFYLHWYQQKPGQAPRLWIYDTSKLASGIPARFSGSGSGTDFTLTISSLEPEDFAVYYCQQWNSNPPTFGGGTKVEIK
relative binding ratio: 0.21

Okay, now this binder:
Supply reported relative binding ratio belonging to this binder: hHC4-03 / hLC4-f (antibody, V domains shown) VH: EVQLLESGGGLVQPGGSLRLSCAASGFTFNSYGMSWVRQAPGKGLEWVSAISSGGSYTYYPDSVKGRFTISRDNSKNTLYLQMNSLRAEDTAVYYCAKHPDYDGVWFAYWGQGTLVTVSS VL: DIQMTQSPSSLSASVGDRVTITCSVSSSVFYVHWYQQKPGKAPKLLIYDTSKLASGVPSRFSGSGSGTDYTFTISSLQPEDIATYYCQQWNSNPPTFGGGTKVEIK
0.07

Values compiled from patent US20110052582A1.
